Assignment: determine reported Solubility in Isopropyl Myristate for the given compounds.
- Procedure Summary: Solubility of corticosteroids in neat solvents, measured gravimetrically
- Assay type: physicochemical
- Assay Context: neat isopropyl myristate; room temperature; examined at about 24 hours

Solved entries (count: 4):
Compound: CCCC(=O)O[C@]1(C(=O)CO)CC[C@H]2[C@@H]3CCC4=CC(=O)CC[C@]4(C)[C@H]3[C@@H](O)C[C@@]21C [Hydrocortisone Butyrate]
Experimental Result: 0.10 % w/w

Compound: CCC(=O)OCC(=O)[C@@]1(OC(=O)CC)[C@@H](C)C[C@H]2[C@@H]3CCC4=CC(=O)C=C[C@]4(C)[C@@]3(F)[C@@H](O)C[C@@]21C [Betamethasone Dipropionate]
Experimental Result: 0.15 % w/w

Compound: CCC(=O)O[C@]1(C(=O)SCF)[C@H](C)C[C@H]2[C@@H]3C[C@H](F)C4=CC(=O)C=C[C@]4(C)[C@@]3(F)[C@@H](O)C[C@@]21C [Fluticasone Propionate]
Experimental Result: <0.03 % w/w

Compound: CC1(C)O[C@@H]2C[C@H]3[C@@H]4CCC5=CC(=O)C=C[C@]5(C)[C@@]4(F)[C@@H](O)C[C@]3(C)[C@]2(C(=O)CO)O1 [Triamcinolone Acetonide]
Experimental Result: <0.04 % w/w

Turning now to a further compound:
Exam item: Returns the measured Solubility in Isopropyl Myristate for the input compound. Input: CCC(=O)O[C@]1(C(=O)CCl)[C@@H](C)C[C@H]2[C@@H]3CCC4=CC(=O)C=C[C@]4(C)[C@@]3(F)[C@@H](O)C[C@@]21C [Clobetasol Propionate]
Marked response: 0.25 % w/w
